system: A549; assay: Cytotoxicity against human A549 cells assessed as inhibition of cell proliferation incubated for 48 hrs by MTT assay; assay type: functional, cell-based; settings: A549, 48 h
pIC50: −log10 of the molar value.
ATTRIBUTE_MEASURED: pIC50

[[record]]
compound = "O=c1c(F)cn(C2CCCO2)c(=O)n1CCCCCCCCN1C[C@H](O)[C@@H](O)[C@H](O)[C@H]1CO (stereo not given in full)"
attribute_measured = "pIC50"
relation_sign = "="
experimental_value = 4.71

[[record]]
compound = "O=c1c(F)cn(C2CCCO2)c(=O)n1CCCCCCCCCCCN1C[C@H](O)[C@@H](O)[C@H](O)[C@H]1CO (stereo not given in full)"
attribute_measured = "pIC50"
relation_sign = "="
experimental_value = 5.20

[[record]]
compound = "O=c1c(F)cn(C2CCCO2)c(=O)n1CCCCCN1C[C@H](O)[C@@H](O)[C@H](O)[C@H]1CO (stereo not given in full)"
attribute_measured = "pIC50"
relation_sign = "="
experimental_value = 4.24

[[record]]
compound = "OC[C@H]1NC[C@H](O)[C@@H](O)[C@@H]1O [DUVOGLUSTAT]"
attribute_measured = "pIC50"
relation_sign = "<"
experimental_value = 4.00

[[record]]
compound = "O=c1[nH]c(=O)n(C2CCCO2)cc1F (stereo not given) [TEGAFUR]"
attribute_measured = "pIC50"
relation_sign = "<"
experimental_value = 4.00

